Recorded Ki values for a group of molecules are listed next.
- tgt: GABAA2 receptors (α2, β3, γ2 receptor subunits transfected into Sf9 cells) (Homo sapiens, UniProt P18507+P47869)
- Sequence (P47869 29-451): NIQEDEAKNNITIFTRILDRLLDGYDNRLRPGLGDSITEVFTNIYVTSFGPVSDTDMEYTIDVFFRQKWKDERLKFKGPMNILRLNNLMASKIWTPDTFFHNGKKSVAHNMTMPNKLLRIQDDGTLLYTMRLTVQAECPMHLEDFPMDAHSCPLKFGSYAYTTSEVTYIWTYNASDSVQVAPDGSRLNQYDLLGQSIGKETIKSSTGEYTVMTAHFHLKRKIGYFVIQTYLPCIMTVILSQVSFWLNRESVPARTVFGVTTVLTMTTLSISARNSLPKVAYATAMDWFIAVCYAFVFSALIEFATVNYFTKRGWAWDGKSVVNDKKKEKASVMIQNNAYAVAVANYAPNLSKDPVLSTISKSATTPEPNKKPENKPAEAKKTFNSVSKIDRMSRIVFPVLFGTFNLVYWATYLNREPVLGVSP
- Sequence (P28472 26-473 partner): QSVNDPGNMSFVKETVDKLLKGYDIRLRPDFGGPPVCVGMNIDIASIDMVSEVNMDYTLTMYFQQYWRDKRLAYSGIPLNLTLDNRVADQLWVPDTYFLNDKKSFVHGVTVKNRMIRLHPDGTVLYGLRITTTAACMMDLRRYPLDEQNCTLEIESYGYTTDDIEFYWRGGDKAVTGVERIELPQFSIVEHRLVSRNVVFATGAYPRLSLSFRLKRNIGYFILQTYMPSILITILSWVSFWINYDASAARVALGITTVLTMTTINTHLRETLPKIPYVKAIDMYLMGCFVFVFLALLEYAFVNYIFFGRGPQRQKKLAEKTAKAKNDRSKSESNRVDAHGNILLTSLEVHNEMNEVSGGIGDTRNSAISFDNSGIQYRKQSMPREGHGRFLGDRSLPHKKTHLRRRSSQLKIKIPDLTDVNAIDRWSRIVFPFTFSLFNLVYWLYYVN
- Sequence (P18507 40-475): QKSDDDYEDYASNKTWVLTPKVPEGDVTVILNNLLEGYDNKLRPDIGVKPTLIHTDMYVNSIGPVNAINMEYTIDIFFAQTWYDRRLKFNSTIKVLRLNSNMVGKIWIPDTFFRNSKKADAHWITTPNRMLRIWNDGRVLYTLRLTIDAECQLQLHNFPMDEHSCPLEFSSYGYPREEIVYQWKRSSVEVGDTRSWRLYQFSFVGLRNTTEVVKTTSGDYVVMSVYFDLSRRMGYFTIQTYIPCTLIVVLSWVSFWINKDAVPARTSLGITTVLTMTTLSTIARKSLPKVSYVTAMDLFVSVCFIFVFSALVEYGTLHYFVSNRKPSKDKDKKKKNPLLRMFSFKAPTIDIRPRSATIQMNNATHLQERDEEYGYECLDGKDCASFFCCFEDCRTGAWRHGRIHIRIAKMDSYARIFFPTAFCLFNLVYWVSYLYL
- experiment_description: GABAA2 Binding Method ([3H]-Flunitrazepam displacement)
- stated_conditions: [3H]-Flunitrazepam ~2 nM, α2β3γ2 Sf9 membranes, 1 hr at 4° C.
Just the number in nM, nothing appended.

Here are 2 molecules together with their reported answers.
>>> print(df.to_string())
                               smiles_entry  measure_name   val
0  CCCN1Cc2nc3c(-c4ccc(F)cc4OC)cccc3c(N)c2C1=O            Ki  60.8
1  COc1ccc(F)c(-c2cccc3c(N)c4c(nc23)CN(C2CC2)C4=O)c1            Ki  13.8

Please find the next molecule below.
IN: Record request: Ki value, item CCCN1Cc2nc3c(-c4cc(F)ccc4C)cccc3c(N)c2C1=O
OUT: 6.3
